Target: Interleukin-1 receptor-associated kinase 4 (Homo sapiens)
Sequence (whole entry): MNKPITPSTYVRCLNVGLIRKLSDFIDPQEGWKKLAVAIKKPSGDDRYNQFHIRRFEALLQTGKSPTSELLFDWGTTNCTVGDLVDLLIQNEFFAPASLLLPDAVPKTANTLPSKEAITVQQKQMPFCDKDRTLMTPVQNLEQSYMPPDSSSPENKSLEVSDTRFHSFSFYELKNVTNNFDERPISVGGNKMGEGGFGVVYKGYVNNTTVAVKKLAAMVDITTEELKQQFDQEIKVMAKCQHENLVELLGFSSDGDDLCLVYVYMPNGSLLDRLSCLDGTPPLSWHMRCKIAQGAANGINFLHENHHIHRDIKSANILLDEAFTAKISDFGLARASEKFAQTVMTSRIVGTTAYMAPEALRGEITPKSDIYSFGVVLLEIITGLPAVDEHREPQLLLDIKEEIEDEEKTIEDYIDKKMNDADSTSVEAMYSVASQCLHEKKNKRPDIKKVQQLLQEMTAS
Conditions: at 1 µM
Reported residual activity values follow for various compounds
Write the value in % as a bare number.

{"Substance Smiles": "O=C(Nc1nc2ccccc2n1CCN1CCOCC1)c1cccc([N+](=O)[O-])c1", "Study Target": "Interleukin-1 receptor-associated kinase 4 (Homo sapiens)", "residual activity / %": 13}
{"Substance Smiles": "Cn1c2ccccc2c2c3c(c4c5ccccc5n(CCC#N)c4c21)CNC3=O", "Study Target": "Interleukin-1 receptor-associated kinase 4 (Homo sapiens)", "residual activity / %": -1}
{"Substance Smiles": "O=C1NC(=O)c2c1c1c3ccccc3[nH]c1n1cncc21", "Study Target": "Interleukin-1 receptor-associated kinase 4 (Homo sapiens)", "residual activity / %": 61}
{"Substance Smiles": "Nc1ncnc2c1c(-c1ccc(Oc3ccccc3)cc1)cn2C1CCCC1", "Study Target": "Interleukin-1 receptor-associated kinase 4 (Homo sapiens)", "residual activity / %": 94}
{"Substance Smiles": "O=C1Nc2ccc(Cl)cc2/C1=C/c1cc(Cl)c(O)c(Cl)c1", "Study Target": "Interleukin-1 receptor-associated kinase 4 (Homo sapiens)", "residual activity / %": 75}
{"Substance Smiles": "O=C1NC(=O)C(c2cn(CCCn3ccnc3)c3ccccc23)=C1Nc1ccccc1", "Study Target": "Interleukin-1 receptor-associated kinase 4 (Homo sapiens)", "residual activity / %": 45}
{"Substance Smiles": "Nc1n[nH]c2nc3ccccc3nc12", "Study Target": "Interleukin-1 receptor-associated kinase 4 (Homo sapiens)", "residual activity / %": 93}
{"Substance Smiles": "CN(C)S(=O)(=O)c1ccc2c(c1)/C(=C/c1cc3c([nH]1)CCCC3)C(=O)N2", "Study Target": "Interleukin-1 receptor-associated kinase 4 (Homo sapiens)", "residual activity / %": 19}

// query Param readout= residual activity; system= Interleukin-1 receptor-associated kinase 4 (Homo sapiens); entry= O=C1NC(=O)C(c2cn(CCCO)c3ncccc23)=C1c1cnccn1 ; returns value.
// result 87

// query Param readout= residual activity; system= Interleukin-1 receptor-associated kinase 4 (Homo sapiens); entry= CC(C)(C)c1nc2c3ccc(F)cc3c3c(=O)[nH]ccc3c2[nH]1 ; returns value.
// result 61

// query Param readout= residual activity; system= Interleukin-1 receptor-associated kinase 4 (Homo sapiens); entry= O=C1NC(=O)C(c2c[nH]c3ccccc23)=C1c1c[nH]c2ccccc12 ; returns value.
// result 81
